- assay text: Pharmacokinetic analyses, plasma, cycle 1 day 4 and day 5
- reported conditions: human, plasma, intravenous, 1000 mg/m2, Geometric mean apparent elimination half-life (t 1/2), belinostat 600, 800 and 1000 mg/m^2, day 4 and day 5; range across groups
measured metric: half-life

Data request: Give its half-life value. Item: O=C(/C=C/c1cccc(S(=O)(=O)Nc2ccccc2)c1)NO
Data returned: 1.9 to 4.8 h

====

- assay text: Pharmacokinetic analyses, plasma, cycle 1 day 4 and day 5
- reported conditions: human, plasma, intravenous, 800 mg/m^2, t max, Median (min–max); 800 mg/m^2 Bel + 75 mg/m^2 doxorubicin, Day 4 (Bel alone), N = 8
measured metric: Tmax (min)
Report as a plain number; the unit min is understood.

Data request: Consider the compound shown here: O=C(/C=C/c1cccc(S(=O)(=O)Nc2ccccc2)c1)NO What is its recorded Tmax?
Data returned: 32

====

- assay text: Pharmacokinetic analyses, plasma, cycle 1 day 4 and day 5
- reported conditions: human, plasma, intravenous, 800 mg/m^2, t 1/2, 800 mg/m^2 Bel + 75 mg/m^2 doxorubicin, Day 4 (Bel alone), N: 4
measured metric: half-life (h)
A number alone suffices; assume h.

Data request: Field request: half-life | item: O=C(/C=C/c1cccc(S(=O)(=O)Nc2ccccc2)c1)NO [belinostat]
Data returned: 1.91

====

- assay text: Pharmacokinetic analyses, plasma, cycle 1 day 4 and day 5
- reported conditions: human, plasma, intravenous, 600 mg/m^2, V ss, 600 mg/m^2 Bel + 75 mg/m^2 doxorubicin, Day 4 (Bel alone), N: 3
measured metric: Vd

Data request: Returns the measured Vd for the input compound. Input: O=C(/C=C/c1cccc(S(=O)(=O)Nc2ccccc2)c1)NO [belinostat]
Data returned: 149 L

====

- assay text: Pharmacokinetic analyses, plasma, cycle 1 day 4 and day 5
- reported conditions: human, plasma, intravenous, 1000 mg/m^2, t max, Median (min–max); 1000 mg/m^2 Bel + 75 mg/m^2 doxorubicin, Day 4 (Bel alone), N = 21
measured metric: Tmax (min)
Report the figure in min without appending any unit label.

Data request: For the compound O=C(/C=C/c1cccc(S(=O)(=O)Nc2ccccc2)c1)NO , what Tmax is on record?
Data returned: 37

====

- assay text: Pharmacokinetic analyses, plasma, cycle 1 day 4 and day 5
- reported conditions: human, plasma, intravenous, t max, Median (min–max); 1000 mg/m^2 Bel + 75 mg/m^2 doxorubicin, Day 5 (with doxorubicin), N = 19
measured metric: Tmax (min)
# output: bare number, implied unit min

Data request: # query: Tmax of entry O=C(/C=C/c1cccc(S(=O)(=O)Nc2ccccc2)c1)NO
Data returned: 38

====

- assay text: Pharmacokinetic analyses, plasma, cycle 1 day 4 and day 5
- reported conditions: human, plasma, intravenous, AUC0–tlast, 600 mg/m^2 Bel + 75 mg/m^2 doxorubicin, Day 5 (with doxorubicin), N = 6
measured metric: AUC(0-t) (ng·h/mL)
Return type: number; implicit unit ng·h/mL.

Data request: Which value of AUC(0-t) has been reported for O=C(/C=C/c1cccc(S(=O)(=O)Nc2ccccc2)c1)NO in the records?
Data returned: 10400

====

- assay text: Pharmacokinetic analyses, plasma, cycle 1 day 4 and day 5
- reported conditions: human, plasma, intravenous, C max, 800 mg/m^2 Bel + 75 mg/m^2 doxorubicin, Day 5 (with doxorubicin), N = 6
measured metric: Cmax (ng/mL)
Give the number; ng/mL is assumed, so skip it.

Data request: Given O=C(/C=C/c1cccc(S(=O)(=O)Nc2ccccc2)c1)NO , state its recorded Cmax.
Data returned: 26400
